Tested on: Saccharomyces cerevisiae
Experiment: protein stability index of tFT-peptide fusion (C-terminal peptide) (PSI (0-1 scale)); higher = more stable (slower turnover)
Conditions: genetic background: wild type; temperature: 30 C
As shown below, each of these sequences has a reported protein stability index value.
quantity_measured: protein stability index

1) FGWVGYGCGVWW = 0.741
2) GLTWLVLGFPGS = 0.757
3) LLHPSPTPPCPP = 0.696
4) GRYCDKRLGIVG = 0.699
5) LSASALEFSSPP = 0.699
6) PPPPRPPRDPPR = 0.663
7) MQGCKAYSVGRQ = 0.701
8) EGRRCQGGVWRE = 0.682
9) APPPLPPARSPP = 0.654
10) ALLLTLTCGLFF = 0.521

====

Tested on: Saccharomyces cerevisiae
Assay: protein stability index of tFT-peptide fusion (C-terminal peptide) (PSI (0-1 scale)); higher = more stable (slower turnover)
Settings: genetic background: wild type; temperature: 30 C
quantity_measured: protein stability index

1. VTSGKAHFVLYN [SIM1 C-terminal 12 aa] = 0.655
2. PHEAALPKPSFV [EDC2 C-terminal 12 aa] = 0.719
3. EGKEEIIYDSEG [RAD55 C-terminal 12 aa] = 0.677
4. FPLLMSEIEDFR [YNL067W-A C-terminal 12 aa] = 0.695
5. NILFVMKEGRIY [YJL213W C-terminal 12 aa] = 0.711
6. GGGYLTSLKLFI [YOR041C C-terminal 12 aa] = 0.681
7. KKNKSAIDGIFG [RMP1 C-terminal 12 aa] = 0.694
8. IKLARRLRGERS [YBR010W; YNL031C C-terminal 12 aa] = 0.68
9. NEPEVQPEAAAN [PUS1 C-terminal 12 aa] = 0.69
10. IAPEVTYRGFIE [RIM9 C-terminal 12 aa] = 0.685
11. SNPSSHIKKKGL [RRT6 C-terminal 12 aa] = 0.636
12. SAIGSDIVNSIF [LSB1 C-terminal 12 aa] = 0.676
13. SFTHQEQDTEMN [NAB2 C-terminal 12 aa] = 0.736
14. DEMQDFLKKHAS [SWI6 C-terminal 12 aa] = 0.643
15. YAPDVVRSLENL [RRP42 C-terminal 12 aa] = 0.695
16. RNVDKLDVFSNS [MRM2 C-terminal 12 aa] = 0.727
17. ENVLFYIGRVNK [COB C-terminal 12 aa] = 0.669
18. KWGMEDSPPPYH [MDM34 C-terminal 12 aa] = 0.694
19. KSDLISNIRQKI [RBH1 C-terminal 12 aa] = 0.638
20. SRIKWHVGTAYS [HHY1 C-terminal 12 aa] = 0.665
21. LKIVEKIIASEQ [YLR419W C-terminal 12 aa] = 0.711
22. SQNELRFEERLL [INO1 C-terminal 12 aa] = 0.675
23. KGTKRDQNDNHN [AQR1 C-terminal 12 aa] = 0.678
24. NLNQHVKTHASL [COM2 C-terminal 12 aa] = 0.681
25. EIRKRRASSLKA [RPS6A C-terminal 12 aa] = 0.646

====

System: Saccharomyces cerevisiae
Assay: protein stability index of tFT-peptide fusion in wild type (PSI (0-1 scale)); higher = more stable (slower turnover)
Details: genetic background: wild type
As shown below, each of these sequences has a reported protein stability index value.
quantity_measured: protein stability index

1. NVVYLSCVACIN = 0.0156
2. FSMRWAFRYWVN = 0.115
3. CTSVGYKFRTNN = 0.176
4. ARWRVGLTRGAS = 0.664
5. FSMRWTFRYWVNQ = 0.141
6. VRGAVGGWRLVGQ = 0.701
7. PDKRNFLIKLLN = 0.112
8. ASWRVGLWRGAS = 0.516
9. CEVSLPILLFFR = 0.066
10. CLVSLPILLFFM = 0.299
11. CTSCGYKFRTPN = 0.689
12. GLYMCSVGCFFR = 0.408
13. RSLRVLLPLYFRV = 0.164
14. RVTRLDWIYFRI = 0.164
15. RIIQPLPVQFLN = 0.0603
16. CLVSLPILLSFR = 0.187
17. ARWRVGLWRGAD = 0.694
18. GLYMCSVGAWFR = 0.451
19. LVVYLSCVLCIN = 0.0221
20. CLVSLPILLVFR = 0.0722
21. CLVSFPILLFFR = 0.0594
22. VRGAQGGWRLVG = 0.191
23. LKILRQIMNHQN = 0.244
24. ARWRVGLWRGAY = 0.598
25. VRGANGGWRLVG = 0.212
26. FDKRNHLIKLLN = 0.131
27. RVTRLDALYFRI = 0.32
28. CTSCGYKFRTNNY = 0.677
29. PSLAASFWRVVGF = 0.692
30. LKILRQKMYHQN = 0.249
31. PSLAASGWRVVG = 0.193
32. RLIQPLPAQFLN = 0.0736
33. ARNRVGLWRGAS = 0.606
34. ARWRVGLWRGAR = 0.663
35. FSMRWTFRYVVN = 0.117
36. AITGPMCPLLLR = 0.497
37. PALAASFWRVVG = 0.178
38. SRWRVGLWRGAS = 0.458
39. PSLAADFWRVVG = 0.171
40. RLIQPLPVQFLS = 0.156
41. YLVSLPILLFFR = 0.0822

====

As shown below, each of these sequences has a reported protein stability index value.
Test system: Saccharomyces cerevisiae
Experiment: protein stability index of tFT-peptide fusion (C-terminal peptide) (PSI (0-1 scale)); higher = more stable (slower turnover)
Settings: genetic background: das1 deletion; temperature: 30 C
quantity_measured: protein stability index

1. EQVRFKNINYKS [AZF1 C-terminal 12 aa] = 0.654
2. LLAKKKLKPNLL [YGR293C C-terminal 12 aa] = 0.714
3. DYSFVNTFRDYE [HAL9 C-terminal 12 aa] = 0.697
4. HGGNVSSSTYQA [GND1 C-terminal 12 aa] = 0.685
5. AQNFILFHDYLH [YLR365W C-terminal 12 aa] = 0.698
6. KPSSNNSINIKV [AHK1 C-terminal 12 aa] = 0.707
7. LRFEEMNSDLVQ [ROG1 C-terminal 12 aa] = 0.705
8. VEPVYLCASLSL [YCR047W-A C-terminal 12 aa] = 0.666
9. LKIVEKIIASEQ [YLR419W C-terminal 12 aa] = 0.683
10. SDGFANNRCQRK [YOR034C-A C-terminal 12 aa] = 0.658
11. NSAFSSASVTKP [YFR057W C-terminal 12 aa] = 0.711
12. QWMNEMVERWAN [SOH1 C-terminal 12 aa] = 0.707
13. VVTYTLKVDLKV [YLR152C C-terminal 12 aa] = 0.469
14. IYIYTSTLQLCV [YHR028W-A C-terminal 12 aa] = 0.376
15. LETAFEEWDYYE [MRX6 C-terminal 12 aa] = 0.731
16. LLGFTTGKEVHL [SMF2 C-terminal 12 aa] = 0.694
17. SVESLMTQQDVE [BIO4 C-terminal 12 aa] = 0.691
18. IGRENENENEDD [POP5 C-terminal 12 aa] = 0.688
19. ISRKAGHPAPAF [YML100W-A C-terminal 12 aa] = 0.717
20. MLKFLAVVFFLL [YGL218W C-terminal 12 aa] = 0.392
21. NTKHYNDTLLKQ [PHO11 C-terminal 12 aa] = 0.718
22. EEEKRRRKKGIR [SPT2 C-terminal 12 aa] = 0.706
23. VPSLLILSVFFS [YPS3 C-terminal 12 aa] = 0.27
24. DSHEDMKRRRLE [ROX3 C-terminal 12 aa] = 0.687
25. EKLQLWHSMSND [YOR008C-A C-terminal 12 aa] = 0.698
26. KESIQQQEDDLL [SEC17 C-terminal 12 aa] = 0.697
27. GAAIAAGVAFLF [YCL048W-A C-terminal 12 aa] = 0.716
28. AIHLEAVSLVDC [CIS3 C-terminal 12 aa] = 0.599
29. KNRRRNTKKIAF [RLP24 C-terminal 12 aa] = 0.705
30. RAYCVGFKWVRF [MCH5 C-terminal 12 aa] = 0.675
31. CLILSQYSILMD [ATG18 C-terminal 12 aa] = 0.631
32. SPPLSTSPDSRR [YLR416C C-terminal 12 aa] = 0.72
33. TPSEDDDGAVEI [LSM3 C-terminal 12 aa] = 0.688
34. YDRDAKNDRSTT [YHL017W C-terminal 12 aa] = 0.705
35. TGGCSSSKFSLS [SKN1 C-terminal 12 aa] = 0.692
36. KSARSWVRSGRL [YPR053C C-terminal 12 aa] = 0.803
37. NTEQAYSQPFRY [NVJ1 C-terminal 12 aa] = 0.702
38. MFLSIQPQEARP [KAP120 C-terminal 12 aa] = 0.72
39. ELYNIIVKSVPK [YRB2 C-terminal 12 aa] = 0.673
40. EGSGEFVGEMEI [MRS6 C-terminal 12 aa] = 0.708
41. EELEAEQIDVFS [PRP8 C-terminal 12 aa] = 0.689
42. HKSGKLLLPVYI [ECO1 C-terminal 12 aa] = 0.636
43. DDEFGDLDAVFF [SNF6 C-terminal 12 aa] = 0.747
44. EGKEEIIYDSEG [RAD55 C-terminal 12 aa] = 0.691
45. PDVLRKLSHQNV [PNS1 C-terminal 12 aa] = 0.713
46. GQGTTLGGPFFP [ALB1 C-terminal 12 aa] = 0.724
47. QLLNDSPLEDKF [FBP26 C-terminal 12 aa] = 0.711
48. EDDITVVVVRVD [PTC7 C-terminal 12 aa] = 0.646
49. KRRNWRRTKMNI [RPL39 C-terminal 12 aa] = 0.682

Origin of the recorded values: the supplement of paper PMC10724198
